The origin of these recorded values is the kinase profiling compilation of Christmann-Franck et al. (2016).

biological target: FRK (human); assay: radiometric filter-binding kinase assay, Kinase HotSpot; settings: compound 0.5 µM; ATP 10 µM
Task for the reader: assign each of the following compounds its reported residual activity.
A bare number is not enough; add the unit after it.

Incoming: Param item = O=C1Nc2cc(Br)ccc2/C1=C1/Nc2ccccc2/C1=N\O ; retrieve measured residual activity.
Outgoing: 23.2%

Incoming: Request the reported residual activity associated with Clc1ccc(Nc2nnc(Cc3ccncc3)c3ccccc23)cc1
Outgoing: 95.4%

Incoming: For O=c1cc(N2CCNCC2)oc2c(-c3ccccc3)cccc12 , what is its reported residual activity?
Outgoing: 105%

Incoming: Quick check: residual activity of CC(C)[C@H](CO)Nc1nc(Nc2cccc(Cl)c2)c2ncn(C(C)C)c2n1 ?
Outgoing: 90.2%

Incoming: For CS(=O)c1ccc(-c2nc(-c3ccc(F)cc3)c(-c3ccncc3)[nH]2)cc1 (stereo unspecified) , what is its reported residual activity?
Outgoing: 87.2%

Incoming: Quick one: residual activity for CSc1nc(-c2ccc(F)cc2)c(-c2ccnc(NC(C)c3ccccc3)c2)[nH]1 (stereo unspecified) ?
Outgoing: 100%
